From: patent US20180057604A1

# study-system: BACE1 in primary mouse cortical neurons (mouse, UniProt P56818 46-501)
# Sequence (P56818 46-501): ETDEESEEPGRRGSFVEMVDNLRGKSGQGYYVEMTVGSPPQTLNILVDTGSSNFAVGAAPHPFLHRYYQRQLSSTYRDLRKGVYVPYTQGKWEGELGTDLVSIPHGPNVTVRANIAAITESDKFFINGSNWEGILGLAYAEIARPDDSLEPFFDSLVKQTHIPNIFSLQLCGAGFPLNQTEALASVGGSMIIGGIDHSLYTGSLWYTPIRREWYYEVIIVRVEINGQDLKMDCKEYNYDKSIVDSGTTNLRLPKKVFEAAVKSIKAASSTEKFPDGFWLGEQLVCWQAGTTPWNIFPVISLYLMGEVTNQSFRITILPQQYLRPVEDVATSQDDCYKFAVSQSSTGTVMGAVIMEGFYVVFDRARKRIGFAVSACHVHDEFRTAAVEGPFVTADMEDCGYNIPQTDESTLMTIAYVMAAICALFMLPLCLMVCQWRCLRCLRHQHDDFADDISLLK
# test-summary: cell-based or functional assay

# binder, maximal % inhibition of Abeta x-40 [%]
measured = [
    ("5897 (antibody, V domains shown, anti-BACE1 IgG) VH: QLQLQESGPGLVKPSETLSLTCTVSGGSISWSSYYWSWIRQPPGKGLEWIGSIYKSGRTYYNPSLKSRVTISVDTSKNQFSLKLSSVTAADTAVYYCARVGHGISYFDLWGRGTLVTVSS VL: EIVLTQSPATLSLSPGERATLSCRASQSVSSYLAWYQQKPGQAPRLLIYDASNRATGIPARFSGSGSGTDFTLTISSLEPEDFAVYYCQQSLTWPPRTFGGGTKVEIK", 62),
    ("5892 (antibody, V domains shown, anti-BACE1 IgG) VH: QVQLVQSGAEVKKPGSSVKVSCKASGGTFSSYAISWVRQAPGQGLEWMGNIIPIFGTATYAQKFQGRVTITADESTSTAYMELSSLRSEDTAVYYCARSGGTKYGMLDVWGQGTMVTVSS VL: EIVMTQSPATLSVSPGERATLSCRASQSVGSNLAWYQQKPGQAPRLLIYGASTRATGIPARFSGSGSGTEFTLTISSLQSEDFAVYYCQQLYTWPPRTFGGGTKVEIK", 73),
    ("5896 (antibody, V domains shown, anti-BACE1 IgG) VH: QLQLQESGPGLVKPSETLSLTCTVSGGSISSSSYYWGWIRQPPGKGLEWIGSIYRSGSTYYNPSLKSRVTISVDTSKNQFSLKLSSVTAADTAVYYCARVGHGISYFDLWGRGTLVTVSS VL: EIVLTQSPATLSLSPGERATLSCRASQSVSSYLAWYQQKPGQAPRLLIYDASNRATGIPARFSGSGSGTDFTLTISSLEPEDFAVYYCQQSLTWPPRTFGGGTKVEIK", 65),
    ("5890 (antibody, V domains shown, anti-BACE1 IgG) VH: QVQLVQSGAEVKKPGSSVKVSCKASGGTFSSYAISWVRQAPGQGLEWMGNIIPGFGTANYAQKFQGRVTITADESTSTAYMELSSLRSEDTAVYYCARSGGTKYGMLDVWGQGTMVTVSS VL: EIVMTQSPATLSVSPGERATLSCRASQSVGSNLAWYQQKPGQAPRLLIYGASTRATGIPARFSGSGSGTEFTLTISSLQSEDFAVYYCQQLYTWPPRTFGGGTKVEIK", 77),
    ("5572 (antibody, V domains shown, anti-BACE1 IgG) VH: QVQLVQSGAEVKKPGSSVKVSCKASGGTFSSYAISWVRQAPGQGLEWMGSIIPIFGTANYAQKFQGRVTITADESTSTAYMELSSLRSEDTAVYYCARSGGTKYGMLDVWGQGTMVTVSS VL: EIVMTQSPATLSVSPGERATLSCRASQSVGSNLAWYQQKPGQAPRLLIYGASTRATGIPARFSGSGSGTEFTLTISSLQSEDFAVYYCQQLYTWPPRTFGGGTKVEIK", 73),
]
